Data provenance is paper PMC9782245.

# tgt: FLT3-ITD (Homo sapiens, UniProt P36888, ITD)
# Sequence (P36888 27-993): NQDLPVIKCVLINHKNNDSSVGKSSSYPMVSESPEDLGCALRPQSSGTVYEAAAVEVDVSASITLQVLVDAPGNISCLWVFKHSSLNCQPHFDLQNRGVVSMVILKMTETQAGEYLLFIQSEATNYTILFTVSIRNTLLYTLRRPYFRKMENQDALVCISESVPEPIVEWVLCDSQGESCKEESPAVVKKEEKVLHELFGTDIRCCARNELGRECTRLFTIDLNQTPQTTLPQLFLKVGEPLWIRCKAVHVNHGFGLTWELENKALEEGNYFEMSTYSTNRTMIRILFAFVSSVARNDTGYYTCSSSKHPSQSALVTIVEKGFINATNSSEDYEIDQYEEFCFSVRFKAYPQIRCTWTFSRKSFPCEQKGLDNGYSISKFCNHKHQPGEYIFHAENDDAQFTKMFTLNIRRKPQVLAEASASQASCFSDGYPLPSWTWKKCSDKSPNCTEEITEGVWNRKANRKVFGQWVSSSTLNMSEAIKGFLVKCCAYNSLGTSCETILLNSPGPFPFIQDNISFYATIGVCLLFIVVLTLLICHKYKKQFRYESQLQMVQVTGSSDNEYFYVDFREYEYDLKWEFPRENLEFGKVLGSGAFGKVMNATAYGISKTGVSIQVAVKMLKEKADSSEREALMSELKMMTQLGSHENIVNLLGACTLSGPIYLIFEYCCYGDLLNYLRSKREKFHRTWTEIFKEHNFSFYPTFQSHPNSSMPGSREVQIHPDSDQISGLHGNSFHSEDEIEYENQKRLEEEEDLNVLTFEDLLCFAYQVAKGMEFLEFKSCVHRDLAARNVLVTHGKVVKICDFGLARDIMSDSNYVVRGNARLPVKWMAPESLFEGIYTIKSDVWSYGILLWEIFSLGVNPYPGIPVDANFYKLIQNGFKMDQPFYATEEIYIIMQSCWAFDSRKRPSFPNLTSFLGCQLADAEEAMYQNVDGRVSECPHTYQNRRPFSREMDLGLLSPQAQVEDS
# protocol.details: Kinase inhibition assay FLT3-ITD
# Assay type: biochemical
# assay.conditions: read-out: IC50 FLT3
pIC50: −log10 of the molar value.
Listing of entries alongside the reported pIC50.

[
  {
    "compound": "Cn1c(=O)n(C2CCCCC2)c2nc(Nc3ccc(N4CCNCC4)cc3)ncc21 [14e]",
    "result": "≥ 6.52"
  },
  {
    "compound": "Cn1c(=O)n(C2CCCCCC2)c2nc(Nc3ccc(N4CCNCC4)cc3)ncc21 [14h]",
    "result": "≥ 6.52"
  },
  {
    "compound": "Cn1c(=O)n(C2CCC2)c2nc(Nc3ccc(N4CCNCC4)cc3)ncc21 [14c]",
    "result": "7.22 to 7.30"
  },
  {
    "compound": "Cn1c(=O)n([C@H]2CC[C@H](C)CC2)c2nc(Nc3ccc(N4CCNCC4)cc3)ncc21 [14g]",
    "result": "≥ 6.52"
  },
  {
    "compound": "Cn1c(=O)n(C2CCCCCCC2)c2nc(Nc3ccc(N4CCNCC4)cc3)ncc21 [14i]",
    "result": "≥ 6.52"
  }
]

Fill in pIC50 for Cn1c(=O)n(-c2ccccc2)c2nc(Nc3ccc(N4CCNCC4)cc3)ncc21 [14m] tested with FLT3-ITD (Homo sapiens, UniProt P36888, ITD).
7.22 to 7.30
